# studyConditions: 298.15 K; 101.33 kPa; Liquid
Tag: Y if measured mass density is not below 1000 kg/m3, N if it is.

In plain terms: is recorded mass density at least 1000 kg/m3 for `Cc1ccccc1` ?
N

In plain terms: is recorded mass density at least 1000 kg/m3 for CCCC[n+]1ccc(C)cc1.F[B-](F)(F)F [1-butyl-4-methylpyridinium tetrafluoroborate] ?
Y

In plain terms: is recorded mass density at least 1000 kg/m3 for CCCC[n+]1ccccc1.F[B-](F)(F)F [1-butylpyridinium tetrafluoroborate] ?
Y

In plain terms: is recorded mass density at least 1000 kg/m3 for CCCC[n+]1ccccc1C.F[B-](F)(F)F [1-butyl-2-methylpyridinium tetrafluoroborate] ?
Y

In plain terms: is recorded mass density at least 1000 kg/m3 for `c1ccccc1` ?
N

In plain terms: is recorded mass density at least 1000 kg/m3 for CCCCCC[n+]1ccccc1.F[B-](F)(F)F [1-hexylpyridinium tetrafluoroborate] ?
Y
